Experimental target: T1, CD8α Fc fusion protein (UniProt P01732 22-182, limits assumed)
T1 construct: Used as the coating antigen of the ELISAs; also called CD8α antigen; CD8α protein; not shown: Fc part
T1 sequence (P01732 22-182 limits assumed): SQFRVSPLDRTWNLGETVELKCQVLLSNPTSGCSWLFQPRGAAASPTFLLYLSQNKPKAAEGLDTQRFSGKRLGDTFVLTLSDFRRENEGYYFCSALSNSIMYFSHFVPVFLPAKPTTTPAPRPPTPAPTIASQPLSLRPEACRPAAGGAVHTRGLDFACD
Assay: ELISA, plate coated with CD8α Fc fusion protein, anti-His-HRP detection, 4-parameter fit; relative to C37
Relative activity (%) listing for selected binders.
Just the number please, in %, no unit attached.

C37-D31Y (histidine-tagged) (VHH, not shown: histidine tag) VHH: QLQLVESGGGLVQAGGSLRLSCAASGLTFEYYAIGWFRQAPGKEREGISCIRIYDGNTYSAESVKGRFTISSDNAKNQVYLQINTLKPEDTAVYYCAAGSYYSCSVYPDYDMDYWGKGTLVTVSS : 48.4
C37-RSA (histidine-tagged) (VHH, not shown: histidine tag) VHH: QLQLVESGGGLVQAGGSLRLSCAASGLTFEDYAIGWFRQAPGKEREGISCIRIYDGNTYSAESVKGRFTISRDNAKNQVYLQINSLKPEDTAVYYCAAGSYYSCSVYPAYDMDYWGKGTLVTVSS : 103
C37-S72R (histidine-tagged) (VHH, not shown: histidine tag) VHH: QLQLVESGGGLVQAGGSLRLSCAASGLTFEDYAIGWFRQAPGKEREGISCIRIYDGNTYSAESVKGRFTISRDNAKNQVYLQINTLKPEDTAVYYCAAGSYYSCSVYPDYDMDYWGKGTLVTVSS : 115

--- query ---
Dear colleague, I am looking for the recorded Relative activity (%) of the following binder: C37-TMS (histidine-tagged) (VHH, not shown: histidine tag) VHH: QLQLVESGGGLVQAGGSLRLSCAASGLTFEDYAIGWFRQAPGKEREGISCIRIYDGNTYSAESVKGRFTISSDNAKNTVYLQMNSLKPEDTAVYYCAAGSYYSCSVYPDYDMDYWGKGTLVTVSS 107
